Molecular target: UniProtKB Q06418
Sequence (Q06418 41-890): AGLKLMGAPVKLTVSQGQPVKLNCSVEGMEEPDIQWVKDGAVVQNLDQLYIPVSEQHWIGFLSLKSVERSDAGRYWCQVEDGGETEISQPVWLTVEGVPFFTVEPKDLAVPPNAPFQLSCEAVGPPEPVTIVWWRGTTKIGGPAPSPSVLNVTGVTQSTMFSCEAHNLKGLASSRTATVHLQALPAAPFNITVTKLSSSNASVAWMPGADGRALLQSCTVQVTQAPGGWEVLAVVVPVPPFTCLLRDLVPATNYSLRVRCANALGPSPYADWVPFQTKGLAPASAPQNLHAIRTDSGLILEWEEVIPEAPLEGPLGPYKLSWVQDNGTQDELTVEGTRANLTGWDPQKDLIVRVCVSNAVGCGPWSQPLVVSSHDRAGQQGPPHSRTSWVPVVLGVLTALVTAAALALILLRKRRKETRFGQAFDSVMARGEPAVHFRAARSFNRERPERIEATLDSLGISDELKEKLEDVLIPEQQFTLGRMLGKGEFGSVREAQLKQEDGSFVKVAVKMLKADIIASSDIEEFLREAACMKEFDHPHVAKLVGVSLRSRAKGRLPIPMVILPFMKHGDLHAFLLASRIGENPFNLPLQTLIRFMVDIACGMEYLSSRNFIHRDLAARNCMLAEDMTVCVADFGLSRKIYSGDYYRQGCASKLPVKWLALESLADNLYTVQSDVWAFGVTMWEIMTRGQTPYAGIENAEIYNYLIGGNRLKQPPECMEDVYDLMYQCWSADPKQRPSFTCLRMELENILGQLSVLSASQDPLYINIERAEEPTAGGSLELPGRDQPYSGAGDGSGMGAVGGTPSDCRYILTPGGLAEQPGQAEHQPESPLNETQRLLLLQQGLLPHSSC
Assay: Tyro3 kinase inhibition IC50
Format: biochemical
Settings: Example 6; read-out: Tyro3 IC50
measured_parameter: IC50 (nM)
// note: answer is a bare numeric in nM

Per the records, this molecule ( O[C@H]1CC[C@H](Nc2nc(Nc3ccccc3)ncc2-c2ccc(CN3CCCC3)cn2)CC1 [UNC4198A] ) has IC50 equal to 0.56

* * *

Below, each entry is listed alongside its reported IC50.
Molecular target: UniProt:Q06418
Experiment: Tyro3 kinase inhibition IC50
Format: biochemical
Settings: Table 2; read-out: Tyro3 IC50

Before answering, review these 4 worked examples.
O[C@H]1CC[C@H](Nc2nc(Nc3ccc(C4=CCOCC4)cc3)ncc2-c2ccccn2)CC1 [UNC4434A]: 0.1 to 1 µM
CN1CCC(c2ccc(Nc3ncc(-c4ccccn4)c(N[C@H]4CC[C@H](O)CC4)n3)cc2)CC1 [UNC5130A]: 0.1 to 1 µM
O[C@H]1CC[C@H](Nc2nc(Nc3ccc(-c4cccnc4)cc3)ncc2-c2ccccn2)CC1 [UNC4435A]: 0.1 to 1 µM
CN1CCC(N2CCC(c3ccc(Nc4ncc(-c5ccccn5)c(N[C@H]5CC[C@H](O)CC5)n4)cc3)CC2)CC1 [UNC5072A]: 0.1 to 1 µM

Now consider a different molecule.
Per the records, this molecule ( CC[C@H](N)C(=O)N1CC=C(c2ccc(Nc3ncc(-c4ccccn4)c(N[C@H]4CC[C@H](O)CC4)n3)cc2)CC1 [UNC4403A] ) has IC50 equal to 0.1 to 1 µM
